Tested on: ECU
Assay name: qHTS profiling for inhibitors of Plasmodium falciparum proliferation (AID 504749); further: nearly all actives have a fitted effect of over 60% in size
Assay conditions: P. falciparum in erythrocytes, SYBR Green DNA, 72 h; series mostly up to 12.8 µM
Records with an inconclusive call do not appear. Activity calls are given as the source filed them. The call rests on the fitted dose curve; in most records, active means well fitted inhibition curve with a large enough effect; inconclusive means small, poorly fitted or top-dose-only effect; inactive means flat fitted curve, though single readings scatter.
Possible outcomes: T for active, F for inactive

Cc1ccsc1/C=C\C1=NCCCN1C	F
CCN(CC)CCOC(=O)[C@@H](Cc1cccc2ccccc12)C[C@@H]1CCCO1	F
NC(C(=O)O)[C@@H]1CC(Cl)=NO1 (stereo not given in full)	T
CC(C)C1CCC(C(=O)NC(Cc2ccccc2)C(=O)O)CC1 (stereo not given)	F
NC(=O)N[C@H]1NC(=O)NC1=O	F
CC(=O)OCC(=O)[C@@]1(O)[C@H](C)C[C@@H]2[C@H]3CCC4=CC(=O)C=C[C@]4(C)[C@]3(F)[C@@H](O)C[C@@]21C	F
Clc1ccc([C@H](Cn2ccnc2)OCc2csc3c(Cl)cccc23)c(Cl)c1	T
CN(C/C=C\c1ccccc1)Cc1cccc2ccccc12	F
COC(=O)N/N=C/C1=C[N+](=O)c2ccccc2[N+]1=O	F
NC[C@@H]1O[C@H](O[C@@H]2[C@H](O[C@@H]3O[C@H](CO)[C@@H](O)[C@@H]3O)[C@@H](O)[C@@H](N)C[C@H]2N)[C@@H](N)[C@H](O)[C@@H]1O	F

---

Tested on: P93_24
Assay name: qHTS profiling for inhibitors of Plasmodium falciparum proliferation (AID 504749); further: nearly all actives have a fitted effect of over 60% in size
Assay conditions: P. falciparum in erythrocytes, SYBR Green DNA, 72 h; series mostly up to 12.8 µM
Records with an inconclusive call do not appear. Activity calls are given as the source filed them. Calls follow the shape of the dose curve; as a rule, active = well fitted inhibition curve with a large enough effect; inconclusive = small, poorly fitted or top-dose-only effect; inactive = flat fitted curve, though single readings scatter.
Possible outcomes: yes (1) for active, no (0) for inactive

CC(C)=CCC[C@](C)(O)C1CC=C(C)CC1 (some centres not stated)	no (0)
c1ccc2c(c1)CCC[C@@H]2C1=NCCN1	no (0)
CCC(=O)O[C@@]1(C(=O)SCF)[C@@H](C)C[C@H]2[C@@H]3C[C@@H](F)C4=CC(=O)C=C[C@@]4(C)[C@]3(F)[C@@H](O)C[C@]21C	yes (1)
CC(=O)C[C@H](c1ccc([N+](=O)[O-])cc1)c1c(O)c2ccccc2oc1=O	no (0)
COC(=O)[C@@H]1[C@@H]2C[C@H]3c4[nH]c5cc(OC)ccc5c4CCN3C[C@@H]2C[C@H](OC(=O)/C=C\c2cc(OC)c(OC)c(OC)c2)[C@H]1OC	yes (1)
CCOC(=O)O[C@]1(C(=O)COC(=O)CC)CC[C@@H]2[C@@H]3CCC4=CC(=O)C=C[C@@]4(C)[C@H]3[C@H](O)C[C@]21C	no (0)
C[C@@]12C=CC(=O)C=C1CCC1C3CC(O)[C@@](O)(C(=O)CO)[C@]3(C)CC(O)[C@]12F (some centres not stated)	no (0)

---

System tested: Cytochrome P450 2D6 (Homo sapiens) (UniProt P10635)
Sequence (P10635 whole entry, looked up): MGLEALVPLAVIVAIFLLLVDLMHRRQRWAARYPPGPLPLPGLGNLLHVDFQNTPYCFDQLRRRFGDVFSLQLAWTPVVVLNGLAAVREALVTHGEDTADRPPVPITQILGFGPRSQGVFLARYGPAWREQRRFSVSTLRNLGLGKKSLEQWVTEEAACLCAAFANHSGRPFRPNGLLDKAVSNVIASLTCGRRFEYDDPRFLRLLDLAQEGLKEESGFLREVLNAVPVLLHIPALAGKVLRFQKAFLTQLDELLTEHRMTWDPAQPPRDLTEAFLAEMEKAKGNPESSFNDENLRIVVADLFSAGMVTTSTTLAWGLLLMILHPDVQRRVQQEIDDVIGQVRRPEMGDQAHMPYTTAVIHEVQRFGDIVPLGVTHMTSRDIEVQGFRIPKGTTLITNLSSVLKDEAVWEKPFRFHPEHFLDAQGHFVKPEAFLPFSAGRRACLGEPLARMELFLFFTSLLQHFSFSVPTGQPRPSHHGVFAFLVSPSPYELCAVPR
Assay name: Cytochrome P450 family 2 subfamily D member 6 (CYP2D6) small molecule antagonists: luciferase biochemical (cell-free) qHTS assay (AID 1645840); further: nearly all actives have a fitted effect of over 55% in size
Assay conditions: P450-Glo CYP2D6 enzyme, luciferin luminescence, 1 h; series mostly up to 57.4 µM
Records with an inconclusive call do not appear. Active and inactive are the calls of the source. Calls come from the whole dose curve; as a rule, active = well fitted inhibition curve with a large enough effect in the repeat runs; inconclusive = weak or mixed curves; inactive = flat fitted curve, though single readings scatter.
Possible outcomes: active, inactive

COc1ccccc1CNC(=O)CCC1N=C2c3ccccc3N=C(SCC(=O)NCCc3ccc(OC)c(OC)c3)N2C1=O (stereo not drawn)	inactive
COc1ccc(NC(=O)Cn2cc(C(=O)c3cccs3)c3ccccc32)cc1	active
COc1cccc(NC(=O)Cn2c(=O)n(CC(=O)NCc3ccc(C)cc3)c(=O)c3sccc32)c1	active
CC1(C)C(/C=C/C=C/C=C/C=C2/N(CCCCS(=O)(=O)O)c3ccc4ccccc4c3C2(C)C)=[N+](CCCCS(=O)(=O)[O-])c2ccc3ccccc3c21	active
COc1ccc(C(=O)Nc2nc3ccccc3n2CCOc2ccc(Cl)cc2)cc1	inactive
CC(NC(=O)C(=O)Nc1c2c(nn1-c1ccccc1)CSC2)c1ccccc1 (stereo not drawn)	inactive
O=C(O)c1ccc(Cc2c(-c3cccc(-c4ccccc4)c3)[nH]n(-c3nc(C(=O)O)cs3)c2=O)cc1	active
COc1ccc(CN(C2CCCCC2)[S+](C)(=O)[O-])cc1OC	inactive
Cn1c(=O)c2c(nc(CN3CCN(C(=O)C4CC4)CC3)n2Cc2ccccc2Cl)n(C)c1=O	inactive
COc1cc(C(=O)NC(c2ccc(Cl)cc2)c2cc(Cl)c3cccnc3c2O)cc(OC)c1OC (stereo not drawn)	inactive
Cc1cncn1CCc1nc2c3ccccc3nc(SCC(=O)Nc3cccc(Cl)c3)n2n1	active
Cc1cccn2c(=O)c(/C=C(\C#N)c3nc4ccccc4s3)c(Oc3ccc(F)cc3)nc12	inactive
Cc1cc2c(F)c(Oc3ncnn4cc(OC[C@@H](C)OC(=O)[C@H](C)N)c(C)c34)ccc2[nH]1	active
CN[C@@H]1[C@@H](O)[C@@H](O[C@@H]2[C@@H](O)[C@H](O[C@H]3O[C@H]([C@@H](C)NC)CC[C@H]3N)[C@@H](N)C[C@H]2N)OC[C@]1(C)O	inactive
COc1ccc(-c2n[nH]c3c2cnc2cc(OC)c(OC)cc23)cc1	inactive
CCOc1ccc(-c2cc(NC(=O)Nc3ccccc3Cl)c(C(=O)OC)s2)cc1	inactive
CCc1ccc(CNC(=O)C2CCCN(c3nnc(C)c4c(C)n(-c5ccc(OC)cc5)nc34)C2)cc1 (stereo not drawn)	active
O=C(Nc1cccc(Cl)c1)Nc1ccccc1OCc1cc(=O)n2ccccc2n1	inactive
